Overview of recorded growth for various molecules
- System: HCC-2998 colon
- Procedure summary: NCI-60 one-dose screen, 48 h (100 = growth as untreated, 0 = no growth, -100 = all killed)
- Setup conditions: 10 µM unless noted
The panel holds about 83,000 compounds, 20% with a hit somewhere; the sample as a whole holds those more often. Calls of active or inactive are those of the source. The calls were made as follows: active = growth percent below 10; inactive = the rest.

{"Molecule": "COC(=O)/C=C1/SC(=Nc2ccc(C)cc2)N(CCc2c[nH]c3ccc(O)cc23)C1=O", "growth": "46.7% (inactive)"}

Ask: // returns reported growth for input COc1ccc(NC(=O)c2sc3nc(C)c(C(=O)/C=C/c4cccc(OC)c4)cc3c2N)cc1
Result: 23.8% (inactive)

Ask: Need growth, item O=C(O)c1[nH]c(=O)[nH]c(=O)c1[N+](=O)[O-]
Result: 99.2% (inactive)

Ask: // growth lookup, key: COc1ccccc1NC(=O)Cn1cc(CN2CCN(c3ccnc4cc(Cl)ccc34)CC2)nn1
Result: 107% (inactive)

Ask: Would you kindly share the measured growth for Cn1ccnc1C(=O)C(=O)Nc1ccc(CC(=O)Nc2ccccc2)cc1 ?
Result: 106% (inactive)

Ask: Requested read-out: growth. Entry: O=C(/C=C/c1ccc(Cl)cc1)c1cccc(Nc2nc(Nc3ccccc3)nc(Nc3ccccc3)n2)c1
Result: 88.8% (inactive)

Ask: Query (molecule): Clc1ccc(Sc2cnc(-c3ccccc3)o2)cc1 ; field requested: growth
Result: 99.2% (inactive)

Ask: Fill in the blank: the reported growth of CN1CCN(Cc2ccc3c(NNC(=O)c4ccccc4)nc4cc(F)ccc4n23)CC1 is ____.
Result: 32.1% (inactive)

Ask: If you can, please state the reported growth value of N#C/C(=C\c1ccc(Br)cc1)n1nnc2ccc(F)cc21 .
Result: -63.6% (active)

Ask: For the molecule O=C(O)c1ccc(-n2cc(/C=N/Nc3ccc(F)cc3)c(-c3cc4ccccc4oc3=O)n2)cc1 , what growth is on record?
Result: 88.3% (inactive)
